Experiment: chemical genetic growth profiling, strain panel (AID 1159580);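 further: tested at 20 µM; growth read once vehicle control cultures reached saturation at 30 °C; 1 = growth at the plate median or of vehicle wells; lower values mean less growth of the strain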
Settings: S. cerevisiae deletion strains, growth OD, locus YLR039C, strain RIC1
In all, about 5,500 compounds went through this assay and about 2,000 (36%) were called active. Another 18% or so got no clear call; they are omitted. No stated cut-off is given here; in the data, active means normalized growth mostly below about 0.91 (no sharp cut-off); inconclusive means no clear call, values can overlap the other calls; inactive means mostly above about 0.92. Some of the results follow. Where a SMILES comes first, the peptide text is derived from it. Bridges are numbered along the chain shown (N, C = ends). [ ]: non-standard residue; d: D form. The star is where a group is joined. ξ: configuration not given here. ξDab(CH2SO3H) = NC(CCNCS(=O)(=O)O)C(=O)O; Heptanoyl(6-Me) = CC(C)CCCCC(=O)*; Dab = NCC[CH](N)C(=O)O
Classes used: active, inactive

MOLECULE	LABEL_VALUE
CCC(C)C1NC(=O)C(CCNCS(=O)(=O)O)NC(=O)C(NC(=O)C(CCNCS(=O)(=O)O)NC(=O)C(NC(=O)C(CCNCS(=O)(=O)O)NC(=O)CCCCC(C)C)C(C)O)CCNC(=O)C(C(C)O)NC(=O)C(CCNCS(=O)(=O)O)NC(=O)C(CCNCS(=O)(=O)O)NC(=O)C(C(C)CC)NC1=O (stereo unspecified) ({Heptanoyl(6-Me)}-[ξDab(CH2SO3H)]T[ξDab(CH2SO3H)][Dab][ξDab(CH2SO3H)]II[ξDab(CH2SO3H)][ξDab(CH2SO3H)]T; lactam 4-C; configuration not given here)	inactive
O=[N+]([O-])c1cnc(Sc2n[nH]c(-c3cccs3)n2)s1	active
N#CC(O[C@@H]1O[C@H](CO[C@@H]2O[C@H](CO)[C@@H](O)[C@H](O)[C@H]2O)[C@@H](O)[C@H](O)[C@H]1O)c1ccccc1 (stereo partly specified)	inactive
COc1ccc2[nH]cc(CCN)c2c1	inactive
Nc1c2ccccc2nc2ccccc12	inactive
Cc1noc(N)c1C(N)=S	inactive
O=C1ON=C(c2ccccc2)/C1=C/c1ccc(Cl)cc1	active
COc1cc(C2OC(c3cc(C)ccc3[N+](=O)[O-])=NN2C(C)=O)cc(OC)c1OC (stereo unspecified)	inactive
Cc1noc(C)c1NC(N)=O	inactive
O=C1CC(CSc2ccc(Cl)cc2)=NN1	inactive
CC1(C)CC[C@]2(C(=O)O)CC[C@]3(C)C(=CCC4[C@@]5(C)CC[C@@H](O)C(C)(C)C5CC[C@]43C)C2C1 (stereo partly specified)	inactive

---

Assay: chemical genetic growth profiling, strain panel (AID 1159580);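 further: tested at 20 µM; growth read once vehicle control cultures reached saturation at 30 °C; 1 = growth at the plate median or of vehicle wells; lower values mean less growth of the strain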
Settings: S. cerevisiae deletion strains, growth OD, locus YDR477W, strain SNF1, hits give low values
The whole screen tested about 5,500 compounds, of which about 2,000 (36%) were called active. Roughly 18% stayed inconclusive and do not appear here. The list shows a part of the results.
MEASURE_NAME: normalized growth

SMILES_TEXT	OBSERVED_MEASUREMENT
Clc1ccc2c(c1)c1ccccc1n2CN1CCOCC1	0.541
O=C(Nc1ccc(Cl)cc1)SCc1c(Cl)cccc1Cl	0.83
O=C(c1cccs1)N(Cc1cccnc1)Cc1ccc(Cl)cc1Cl	0.934
Cc1oc(C(C)(C)C)cc1-c1cc(N)n(-c2ccc(I)cc2)n1	0.956
O=C(c1ccc(Cl)cc1)N(Cc1ccccc1)Cc1cccnc1	0.886
O=C(NCCc1ccncc1)c1ccc(Cl)c(Cl)c1	1.01
COc1ccc2nc3ccccc3c(N)c2c1	0.198
CCOC(=O)c1cc(CC)sc1NC(=O)c1ccc([N+](=O)[O-])o1	0.327
Cc1ccc(S(=O)(=O)n2c(Sc3ccc([N+](=O)[O-])cc3[N+](=O)[O-])nc3cc(C)ccc32)cc1	0.968
